# Tgt: Dihydroorotate dehydrogenase (quinone), mitochondrial (Plasmodium falciparum (isolate 3D7)) (UniProt Q08210)
# Sequence (Q08210 whole entry, looked up): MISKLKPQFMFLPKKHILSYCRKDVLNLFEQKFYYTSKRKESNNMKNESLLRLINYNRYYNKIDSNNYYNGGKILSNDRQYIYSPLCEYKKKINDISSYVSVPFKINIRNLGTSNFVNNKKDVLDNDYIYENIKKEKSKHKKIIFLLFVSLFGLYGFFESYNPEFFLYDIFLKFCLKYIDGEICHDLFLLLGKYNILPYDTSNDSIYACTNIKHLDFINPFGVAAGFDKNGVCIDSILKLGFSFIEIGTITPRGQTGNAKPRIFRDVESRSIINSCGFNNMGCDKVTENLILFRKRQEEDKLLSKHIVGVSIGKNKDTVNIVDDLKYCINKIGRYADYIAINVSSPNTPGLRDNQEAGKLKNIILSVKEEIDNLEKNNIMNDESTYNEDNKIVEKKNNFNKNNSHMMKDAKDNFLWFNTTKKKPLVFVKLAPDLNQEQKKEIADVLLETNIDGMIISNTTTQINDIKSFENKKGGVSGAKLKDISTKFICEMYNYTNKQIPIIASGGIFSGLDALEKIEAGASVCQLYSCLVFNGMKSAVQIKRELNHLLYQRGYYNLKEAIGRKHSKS
# Experiment Description: PfDHODH enzyme inhibitors, primary screen, biochemical, C-terminal His tag, absorbance 600 nm (AID 1175);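 also: recombinant parasite enzyme with a five histidine tag at its C terminus; test concentration not given here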
# Condition Parameters: DCIP absorbance 600 nm, higher = more signal, called active from +8 up or from −8 down
Label rule, in plain words: composite z-score of -0.08 and up is satisfied, under -0.08 is not satisfied.

[[record]]
compound = "O=C1C2C=CC(C(O)c3ccccc3)N(n3cnnc3)C2C(=O)N1Cc1ccccc1 (centres undefined)"
category_label = "not satisfied"

[[record]]
compound = "[N-]=[N+]=NCc1ccccc1[C@H]1OC(c2ccc(OCCCO)cc2)=N[C@@]1(Cc1ccccc1N=[N+]=[N-])C(=O)NCc1ccccc1"
category_label = "satisfied"

[[record]]
compound = "C=CCOC(=O)[C@@H]1[C@H]2C(=O)O[C@H](c3ccccc3)[C@H](c3ccccc3)N2[C@H](c2ccc(OCCOC(=O)[C@H]3C[C@H]4C(=O)N[C@@H](CCCCNC(C)=O)C(=O)N4[C@H]3c3ccc(O)cc3)cc2)[C@@]12C(=O)Nc1ccc(I)cc12"
category_label = "satisfied"

[[record]]
compound = "CCCNC(=O)[C@@H]1c2ccccc2C(=O)N(Cc2cc(F)cc(C(F)(F)F)c2)[C@H]1c1ccc(CO)cc1"
category_label = "satisfied"

[[record]]
compound = "CO[C@H]1COC(=O)[C@@H](OCc2ccccc2)C=C[C@H](C)[C@@H](OC)COC(=O)[C@H](OCc2ccccc2)C=C[C@@H]1C"
category_label = "not satisfied"

[[record]]
compound = "C=CCC(OC(C)=O)[C@@H]1[C@@H](N(Cc2ccc(-c3cccc(C(F)(F)F)c3)o2)C(=O)Cc2ccc(F)cc2)c2cc(OCCCO)ccc2N1C(=O)c1ccc(-c2ccccc2)cc1 (some centres undefined)"
category_label = "not satisfied"


// inclusive: composite z-score at least -0.08? input: CCOC(=O)C1=CC[C@@H](c2ccccc2)N(S(=O)(=O)c2ccc(C)cc2)[C@H]1C
not satisfied

Could you please find out whether C=C(CCCC)/C(=C/C[C@@H](OC(=O)c1ccncc1)c1cccc(OCCO)c1)c1cc(C(=O)OC)ccc1OC has composite z-score that meets -0.08 or exceeds it?
not satisfied

Quick check: does Cc1ccc(N2C(=O)c3ccccc3[C@](C)(C(=O)NCC(C)C)[C@@H]2c2ccc(CO)cc2)nc1 have composite z-score greater than or equal to -0.08?
satisfied

Quick check: does CCOC(=O)C1=CC[C@@H](c2ccc(-c3ccc(OCc4ccccc4)cc3)c(OC)c2)N(S(=O)(=O)c2ccc(C)cc2)[C@H]1c1ccccc1 have composite z-score greater than or equal to -0.08?
satisfied

Decide: is the reported value of composite z-score for CCN1C(C)=C(C(=O)OC)[C@@H](c2ccccc2)N2C(=O)[C@@]3(C(=O)OC)O[C@@]12[C@@H]1C(=O)N(c2ccccc2)C(=O)[C@@H]13 equal to or greater than -0.08?
satisfied

Form field: composite z-score at least -0.08? Entry: C=CC[C@]1(C(=O)O)N=C(c2ccc(OCCCO)cc2)O[C@H]1c1ccccc1
satisfied

# bool: composite z-score of O=C1OCC=C[C@H]2OC34C=CCN(Cc5ccccc5)C(=O)[C@H]3N(CCCCCO)C(=O)[C@@H]4[C@@H]12 (some centres undefined) >= -0.08
satisfied
